IC50 values for MAPK1(ERK2) enzyme (Homo sapiens), compiled from several publications.

Some entries whose results are on file:
> print(dat)
                                   molecule  measured.result
1  Cc1cnc(Nc2ccnn2C)nc1-c1cc2n(c1)CCn1c-2nnc1C1(C(F)(F)F)CCC1           ≤ 5 nM
2  COc1cccc(F)c1CN1CC[C@@H](N2Cc3cc4c(-c5ccnc(C)c5)n[nH]c4cc3NC2=O)C1         < 500 nM
3  Cn1nccc1Nc1cc(-c2cc3n(c2)CCCn2c-3nnc2C2(C(F)F)CC(F)(F)C2)c(Cl)cn1           ≤ 5 nM
4  Cn1nccc1Nc1cc(-c2cc3n(c2)CC(F)(F)Cn2c(Cn4cc(F)cn4)nnc2-3)c(Cl)cn1           ≤ 5 nM
5  CCNC(=O)Nc1ccc2ncc(Nc3cc(Cl)c(O)c(Cl)c3)nc2n1       > 31600 nM
6  Cc1cc(-c2n[nH]c3cc4c(cc23)CN([C@@H]2CN(C)C[C@H]2c2ccccc2)C(=O)N4)ccn1 (racemic)         < 500 nM
7  Cc1cnc(Nc2ncnn2C)cc1-c1cc2n(c1)C[C@H](CF)n1c-2nnc1C(F)(F)c1ccccc1Cl       5 to 10 nM

# input for lookup
Exercise: Any idea what IC50 was measured for Cn1nccc1Nc1cc(-c2cc3n(c2)CCCn2c(Nc4ccccc4F)nnc2-3)c(Cl)cn1 ?
Solution: 5 to 10 nM

----------
IC50 values for MAPK1(ERK2) enzyme (Homo sapiens), compiled from several publications.

Some entries whose results are on file:
> print(dat)
                                   compound  property.label  measured.result
1  O=C(NCc1ccc(S(=O)(=O)N2CCCN(C(=O)Cc3ccccc3)CC2)s1)c1ccc(Cl)cc1            IC50       > 30000 nM
2  C[C@H](Oc1ccccc1F)c1nnc2c3cc(-c4ccnc(Nc5ccnn5C)n4)cn3ccn12            IC50       5 to 10 nM
3  Cc1cnc(Nc2ccnn2C)nc1-c1cc2c3nnc(C4(C(F)(F)F)CCC4)n3ccn2c1            IC50           ≤ 5 nM
4  CCNC(=O)Nc1ccc2ncc(-c3ccc(OCCCN4CCOCC4)cc3)nc2n1            IC50          1800 nM
5  Cc1cnc(NC(C)C2CCOCC2)nc1-n1cnc(C(=O)N[C@H](CO)c2cccc(Cl)c2)c1 (some centres unmarked)            IC50          ≤ 50 nM
6  COC[C@H]1Cn2cc(-c3cc(Nc4ccnn4C)ncc3C)cc2-c2nnc(C(F)(F)c3ccccc3Cl)n21            IC50          > 10 nM
7  Cn1nccc1Nc1nccc(-c2cc3n(c2)C[C@H](C(F)(F)F)n2c-3nnc2C(F)(F)c2ccccc2F)n1            IC50       5 to 10 nM
8  COc1cc(F)cc([C@@H](CO)N2Cc3cc(-c4nc(Nc5ccnn5C)ncc4C)cn3C2=O)c1            IC50             2 nM

# input for lookup
Exercise: Any idea what IC50 was measured for Cc1cnc(Nc2ccnn2C)nc1-c1nc2c(s1)C1(COC1)N(Cc1cccc(Cl)c1)C2=O ?
Solution: 0.48 nM

----------
IC50 values for MAPK1(ERK2) enzyme (Homo sapiens, UniProt P28482), compiled from several publications.

Some entries whose results are on file:
> print(dat)
                              line.notation  property.label  measured.result
1  Cc1cnc(Nc2ccnn2C)nc1-c1cc2n(c1)C[C@H](C)n1c-2nnc1C(F)(F)n1cc(Cl)cn1            IC50           ≤ 5 nM
2  COc1cc(-c2cnc3ccc(NC(=O)NCCCCO)nc3n2)ccc1O            IC50           150 nM
3  COc1cc(-c2cnc3ccc(NC(=O)NCCCCc4ccccc4)nc3n2)ccc1C(=O)O            IC50             1 nM

Exercise: Any idea what IC50 was measured for Cc1n[nH]c(C)c1-c1cnc2ccc(NC(=O)N[C@H](C)CCCc3ccccc3)nc2n1 ?
Solution: 6 nM

Exercise: Subsequent entry: CCC(F)(F)c1nnc2n1[C@@H](CF)Cn1cc(-c3cc(Nc4ccnn4C)ncc3Cl)cc1-2
Solution: ≤ 5 nM

Exercise: Subsequent entry: Cn1nccc1Nc1nccc(-c2cc3c4nnc(Cc5cccc(F)c5)n4ccn3c2)n1
Solution: ≤ 5 nM

Exercise: Subsequent entry: COc1ncc(-c2n[nH]c3cc4c(cc23)CN(Cc2cccc(Cl)c2)C(=O)N4)cn1
Solution: < 500 nM

Exercise: Subsequent entry: Cc1cnc(Nc2ccnn2C)nc1-c1cc2n(c1)C[C@H](CF)n1c-2nnc1C(F)(F)c1ccccc1F
Solution: ≤ 5 nM

Exercise: Subsequent entry: Cn1nccc1Nc1nccc(-c2cc3n(c2)C(=O)N([C@H](CO)c2ccc(F)c(Cl)c2)C3)n1
Solution: 44 nM

Exercise: Subsequent entry: Cc1cc(-c2n[nH]c3cc4c(cc23)CN([C@@H]2CCCN(Cc3sccc3F)C2)C(=O)N4)ccn1
Solution: < 500 nM

----------
IC50 values for UniProt P28482, compiled from several publications.

> print(dat)
                              line.notation  experimental.system  property.label  measured.result
1  Cc1cnc(Nc2ccnn2C(F)F)nc1-c1cn2c(n1)-c1nnc(C(F)(F)c3ccccc3Cl)n1[C@@H](C)C2       UniProt P28482            IC50           ≤ 5 nM

Exercise: Any idea what IC50 was measured for O=C(NCCCCc1ccccc1)Nc1ccc2ncc(-c3cnn(CCCO)c3)nc2n1 ?
Solution: 2 nM

Exercise: Subsequent entry: COc1cc(-c2n[nH]c3cc4c(cc23)CN([C@@H]2CCCN(Cc3ccc(F)cc3F)C2)C(=O)N4)ccn1
Solution: < 500 nM

Exercise: Subsequent entry: Cn1nccc1Nc1cc(-c2cc3n(c2)CCn2c-3nnc2C2(C(F)F)CCC2)c(Cl)cn1
Solution: ≤ 5 nM

Exercise: Subsequent entry: CCNC(=O)Nc1ccc2ncc(Nc3ccc4ccccc4c3)nc2n1
Solution: > 100000 nM

Exercise: Subsequent entry: COc1ncc(-c2n[nH]c3cc4c(cc23)CN([C@@H]2CCCN(Cc3ccccc3)C2)C(=O)N4)cn1
Solution: < 500 nM

Exercise: Subsequent entry: C[C@H]1Cn2cc(-c3ccnc(Nc4ccnn4C)n3)nc2C(=O)N1Cc1cccc(Cl)c1
Solution: 0.7 nM

Exercise: Subsequent entry: Nc1ncc(C2CCOCC2)cc1-c1ccc(C(=O)NCc2cccc(C(F)(F)F)c2)cc1
Solution: 9.8 nM

----------
IC50 values for MAPK1(ERK2) enzyme (Homo sapiens, UniProt P28482), compiled from several publications.

> print(dat)
                                   compound  property.label  measured.result
1  Cc1cnc(Nc2ccnn2C)nc1-c1cn2c(n1)C(=O)N(Cc1cccc(C(F)F)c1)[C@@H](C)C2            IC50           0.6 nM

Exercise: Any idea what IC50 was measured for CC1CCn2c(nnc2C2(C(F)(F)F)CCC2)-c2cc(-c3cc(Nc4ccnn4C)ncc3Cl)cn21 (stereo not shown) ?
Solution: ≤ 5 nM

Exercise: Subsequent entry: CC(C)Oc1ccc(-c2n[nH]c3cc4[nH]c(C(=O)N[C@H](C)c5ccccc5)nc4cc23)cn1
Solution: 3.08 nM

Exercise: Subsequent entry: O=C(NCc1ccc(S(=O)(=O)N2CCC(Nc3ccccc3)CC2)s1)c1ccc(Cl)cc1
Solution: > 30000 nM

----------
pIC50 values for MAPK1(ERK2) enzyme (Homo sapiens, UniProt P28482), compiled from several publications.
pIC50: −log10 of the molar value.

Exercise: Any idea what pIC50 was measured for Cc1cnc(Nc2ccnn2C)cc1-c1cc2n(c1)C[C@H](CF)n1c-2nnc1C(F)(F)c1ccccc1Cl ?
Solution: 8.00 to 8.30

Exercise: Subsequent entry: Cn1nccc1Nc1cc(-c2cc3n(c2)[C@H]2CC[C@H](C2)n2c-3nnc2C2(C(F)(F)F)CCC2)c(Cl)cn1
Solution: < 8.00

Exercise: Subsequent entry: O=C1Nc2cc3[nH]nc(-c4ccncc4)c3cc2CN1Cc1cccc(Cl)c1
Solution: > 6.30

Exercise: Subsequent entry: COc1ncc(-c2n[nH]c3cc4c(cc23)CN([C@@H]2CCCN(Cc3c(F)cccc3F)C2)C(=O)N4)cn1
Solution: > 6.30

Exercise: Subsequent entry: Cc1cnc(Nc2ccnn2C(C)C)nc1-c1cc2n(c1)C[C@H](C)n1c-2nnc1C(F)(F)c1ccccc1F
Solution: < 8.00

Exercise: Subsequent entry: Cc1cnc(Nc2ccnn2C)cc1-c1cc2n(c1)C[C@H](CF)n1c-2nnc1C(F)(F)c1c(F)cccc1F
Solution: < 8.00

Exercise: Subsequent entry: Cn1nccc1Nc1nccc(-c2cc3c4nnc(Nc5ccccc5F)n4ccn3c2)n1
Solution: ≥ 8.30

Exercise: Subsequent entry: Cn1nccc1Nc1cc(-c2cc3n(c2)C[C@H](CF)n2c-3nnc2C2(F)CC2)c(Cl)cn1
Solution: ≥ 8.30

Exercise: Subsequent entry: C[C@@H](NC(=O)c1nc2cc3c(-c4ccncc4)n[nH]c3cc2[nH]1)c1cccc(Cl)c1
Solution: 9.77

Exercise: Subsequent entry: O=C(NCc1ccc(S(=O)(=O)N2CCC(Nc3cccc(S(=O)(=O)CCO)c3)CC2)s1)c1ccc(Cl)cc1
Solution: < 4.52

Exercise: Subsequent entry: O=C(NCc1ccco1)c1cc2c(/C=C/c3cccc(F)c3)n[nH]c2cc1F
Solution: 4.66

Exercise: Subsequent entry: CN(Cc1ccccc1)C(=O)c1ccc(-c2nc(C3CCOCC3)cnc2N)cc1F
Solution: 7.51

Exercise: Subsequent entry: COC(=O)c1cccc(NC2CCN(S(=O)(=O)c3ccc(CNC(=O)c4ccc([N+](=O)[O-])cc4)s3)CC2)c1
Solution: < 4.52

Exercise: Subsequent entry: COC(=O)N1CCC(c2cnc(N)c(-c3ccc(C(=O)N[C@H](CO)c4ccccc4)cc3)c2)CC1
Solution: 7.58
